B1: 1ZHC (parent)
chain: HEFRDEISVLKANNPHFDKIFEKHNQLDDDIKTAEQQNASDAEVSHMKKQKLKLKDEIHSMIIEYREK

variants of: B1; assay: folding stability dG (cDNA display proteolysis); higher = more stable; settings: PBS, room temperature
// label = yes (1) if folding stability dG is not less than 0.6 kcal/mol, otherwise no (0)

Worked cases, answers included:
# mutant label, category
data = [
    ("S60L", "yes (1)"),
    ("A39N", "no (0)"),
    ("M47C", "no (0)"),
    ("E2L", "yes (1)"),
    ("S8H", "no (0)"),
]

Input: Tell me whether folding stability dG is at least 0.6 kcal/mol here: H46A
Output: yes (1)

Input: Please give the result for L54I too.
Output: no (0)
